tested on: NCI-H23 lung; assay: NCI-60 one-dose screen, 48 h (100 = growth as untreated, 0 = no growth, -100 = all killed); details: 10 µM
This is part of a sample that, as a whole, favours compounds with a hit. Of some 83,000 tested, about 20% had one in any assay.
Give growth for every item shown.
Answer in %, number only, no unit symbol.

For the compound O=C(Nc1cccc(-n2cc(-c3ccncc3)c(-c3ccc(O)c(Cl)c3)n2)c1)c1ccc(Cl)c(Cl)c1 , what growth is on record?
78.5

What about CCCCCC(=O)c1ccc(OCCCN2CCN(C(=O)OCC)CC2)cc1 ?
81.2

What about COc1ccc2c(c1)/C(=C\c1c[nH]c3ccc(OC)cc13)C(=O)N2 ?
49.4

What about CCCC(F)C(=O)O (stereo unspecified) ?
105

What about CC(C)=NNc1ncnc2c1ncn2C1OC(CO)C(O)C1O (stereo unspecified) ?
31.7

What about Nc1c(C(=O)Nc2cccc(Br)c2)sc2nc3c(cc12)C(O)CCC3 (stereo unspecified) ?
34.9

What about CC1(C)Cc2c(sc3ncn4nc(-c5ccc(O)cc5)nc4c23)CO1 ?
90.9

What about CCOC(=O)CCC(NC(=O)c1ccc(N)cc1)C(=O)OCC (stereo unspecified) ?
99.1

What about COc1cc2nc(Nc3cccc(C(=O)O)c3)nc(N)c2cc1OC ?
128

What about O=C(O)CN1C(=O)c2cccc3cccc(c23)C1=O ?
101

What about CC1(O)CCC2CC3OC3(C)CCC3OC3(C)CCC1C2(C)C (stereo unspecified) ?
105
